- Test system: ulceration induced by exposure to stress (restraint and water immersion) in rats
- experiment_notes: Effect on the ulceration induced by exposure to stress (restraint and water immersion) in rats, Test 2
- Format: in vivo, rat (male Wistar)
- assay_conditions: stress-induced ulcer, rat, 10 mg/kg p.o.
parameter: Ulcer index (mm)
# value in mm; strip the unit string

Fill blank: measured Ulcer index of the compound `O=C(O)/C=C\C(=O)O.O=C(O)/C=C\C(=O)O.OCCN1CCN(c2cc(-c3cccc(C(F)(F)F)c3)c3ccccc3n2)CC1` is ____. 34.8

Fill blank: measured Ulcer index of the compound `Cc1ccc(-c2cc(N3CCN(CCO)CC3)nc3ccccc23)cc1.O=C(O)/C=C\C(=O)O.O=C(O)/C=C\C(=O)O` is ____. 11.8

Fill blank: measured Ulcer index of the compound `Clc1ccc(-c2cc(N3CCNCC3)nc3ccccc23)cc1.O=C(O)/C=C\C(=O)O` is ____. 8.5

Fill blank: measured Ulcer index of the compound `Cl.Cl.OCCN1CCN(c2cc(-c3ccc(F)cc3)c3ccccc3n2)CC1` is ____. 7.4

Fill blank: measured Ulcer index of the compound `O=C(O)/C=C\C(=O)O.O=C(O)/C=C\C(=O)O.OCCN1CCN(c2cc(-c3ccc(Cl)cc3)c3ccccc3n2)CC1` is ____. 18.5

Fill blank: measured Ulcer index of the compound `O=C(O)/C=C\C(=O)O.O=C(O)/C=C\C(=O)O.OCCN1CCN(c2cc(-c3ccc(C(F)(F)F)cc3)c3ccccc3n2)CC1` is ____. 19.8

Fill blank: measured Ulcer index of the compound `FC(F)(F)c1cccc(-c2cc(N3CCNCC3)nc3ccccc23)c1.O=C(O)/C=C\C(=O)O.O=C(O)/C=C\C(=O)O` is ____. 24.7

---

- Test system: ulceration induced by exposure to stress (restraint and water immersion) in rats
- experiment_notes: Effect on the ulceration induced by exposure to stress (restraint and water immersion) in rats, Test 2
- Format: in vivo, rat (male Wistar)
- assay_conditions: stress-induced ulcer, rat, 10 mg/kg p.o.
Assign Ulcer index to each entry below.
# value in mm; strip the unit string

Fill blank: measured Ulcer index of the compound `O=C(O)/C=C\C(=O)O.O=C(O)/C=C\C(=O)O.OCCCN1CCN(c2cc(-c3ccc(F)cc3)c3ccccc3n2)CC1` is ____. 7.4

Fill blank: measured Ulcer index of the compound `CCN1CCN(c2cc(-c3ccc(Cl)cc3)c3ccccc3n2)CC1.O=C(O)/C=C\C(=O)O.O=C(O)/C=C\C(=O)O` is ____. 13.4

Fill blank: measured Ulcer index of the compound `CCN1CCN(c2cc(-c3cccc(C(F)(F)F)c3)c3ccccc3n2)CC1.O=C(O)/C=C\C(=O)O.O=C(O)/C=C\C(=O)O` is ____. 27.1
